Give pIC50 for every item shown.
- assayed.target: baculovirus-expressed human trkA cytoplasmic domain (Homo sapiens, UniProt P04629)
Answers are plain numbers, as −log10 of the molar value.

CC12COCC(O1)n1c3ccccc3c3c4c(c5c(c31)C2c1ccccc1-5)C(=O)NC4 (stereo not drawn) [II-7b]    8.30
CC12CCC(O1)n1c3ccc(Br)cc3c3c4c(c5c(c31)C2c1ccccc1-5)C(=O)NC4 (stereo not drawn) [II-5]    7.14
O=C1NCc2c3c4c5c(c21)c1ccccc1n5C1CCC(O1)C4c1ccccc1-3 (stereo not drawn) [II-8]    6.60
CC12CCCC(O1)n1c3ccccc3c3c4c(c5c(c31)C2c1ccccc1-5)C(=O)NC4 (single isomer, unassigned) [II-4a]    7.12
CCOC(=O)C12CCC(O1)n1c3ccccc3c3c4c(c5c(c31)C2c1ccccc1-5)C(=O)NC4 (stereo not drawn) [II-11]    6.92

Next compound, please.
Query: Any idea what pIC50 was measured for CC12COCC(O1)n1c3ccccc3c3c4c(c5c(c31)C2c1ccccc1-5)C(=O)NC4 (single isomer, unassigned) [II-7a] ?
Result: 7.96

---

- assayed.target: trkA in NIH3T3 cells transfected with trkA (Homo sapiens, UniProt P04629)
- Construct: expressed in transfected cells; host or cells: NIH3T3 cells
- Sequence (P04629 33-796): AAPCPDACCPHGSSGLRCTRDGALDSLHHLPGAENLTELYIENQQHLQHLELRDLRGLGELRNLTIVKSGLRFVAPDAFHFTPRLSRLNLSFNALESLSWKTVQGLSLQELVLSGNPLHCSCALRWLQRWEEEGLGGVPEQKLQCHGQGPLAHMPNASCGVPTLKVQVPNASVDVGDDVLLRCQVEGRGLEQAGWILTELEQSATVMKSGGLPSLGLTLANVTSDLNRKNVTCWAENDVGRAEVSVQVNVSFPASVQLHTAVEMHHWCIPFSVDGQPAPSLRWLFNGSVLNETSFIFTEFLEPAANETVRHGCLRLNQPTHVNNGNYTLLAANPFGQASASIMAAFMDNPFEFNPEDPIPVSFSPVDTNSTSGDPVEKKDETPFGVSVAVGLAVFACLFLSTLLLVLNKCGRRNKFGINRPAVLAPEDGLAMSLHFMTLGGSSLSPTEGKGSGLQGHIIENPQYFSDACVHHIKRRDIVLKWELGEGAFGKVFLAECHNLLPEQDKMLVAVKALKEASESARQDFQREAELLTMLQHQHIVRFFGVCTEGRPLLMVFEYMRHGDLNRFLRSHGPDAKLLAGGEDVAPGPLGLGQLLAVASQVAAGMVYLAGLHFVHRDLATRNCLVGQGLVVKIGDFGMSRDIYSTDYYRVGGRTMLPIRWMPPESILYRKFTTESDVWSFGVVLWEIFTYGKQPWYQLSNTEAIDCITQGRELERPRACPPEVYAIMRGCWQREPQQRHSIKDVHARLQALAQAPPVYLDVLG
- assay.overview: Inhibition of NGF-stimulated trk phosphorylation in a whole cell preparation
- Type: cell-based
- assay.conditions: 1000 nM compound, NGF 10 ng/ml, percent decrease in trk protein band
Give Inhibition Score at 1000 nM for every item shown.

Please review the entries below; each comes with its answer.
O=C1NCc2c1c1c3c4c2c2ccccc2n4C2CCC(O2)C3c2ccccc2-1 (centres unmarked) [II-1]    4 (4=76-100%)
CC12CCC(O1)n1c3ccccc3c3c4c(c5c(c31)C2c1ccccc1-5)C(=O)NC4 (centres unmarked) [II-3]    4 (4=76-100%)
CC12COCC(O1)n1c3ccccc3c3c4c(c5c(c31)C2c1ccccc1-5)C(=O)NC4 (centres unmarked) [II-7b]    4 (4=76-100%)
CC12CCCC(O1)n1c3ccccc3c3c4c(c5c(c31)C2c1ccccc1-5)C(=O)NC4 (single isomer, unassigned) [II-4b]    2 (2=26-49%)

Next molecule, please.
Query: Any idea what Inhibition Score at 1000 nM was measured for CC12COCC(O1)n1c3ccccc3c3c4c(c5c(c31)C2c1ccccc1-5)C(=O)NC4 (single isomer, unassigned) [II-7a] ?
Result: 4 (4=76-100%)

---

- System: protein kinase C (mixed isozymes of a, b, g)
- assay.overview: Inhibition of protein kinase C activity (Millipore Multiscreen TCA in-plate assay)
- Type: biochemical
- assay.conditions: 1 uM; values in parentheses
readout.type: PKC % Inh. @ 1 uM

Nc1cccc(-c2ccc3c(c2)c2c4c(c5c6c2n3C2CCC(O2)C6c2ccccc2-5)C(=O)NC4)c1 (centres unmarked)    (5) %
O=C1NC(=O)c2c1c1c3c4c2c2ccccc2n4C2CCC(O2)C3(O)c2ccccc2-1 (centres unmarked)    (5) %

---

- assayed.target: PDGFβ receptor kinase domain (Homo sapiens, UniProt P09619)
- Construct: baculovirus-expresses PDGFβ receptor kinase domain; made in house; host or cells: baculovirus expression system
- Sequence (P09619 600-962 limits assumed): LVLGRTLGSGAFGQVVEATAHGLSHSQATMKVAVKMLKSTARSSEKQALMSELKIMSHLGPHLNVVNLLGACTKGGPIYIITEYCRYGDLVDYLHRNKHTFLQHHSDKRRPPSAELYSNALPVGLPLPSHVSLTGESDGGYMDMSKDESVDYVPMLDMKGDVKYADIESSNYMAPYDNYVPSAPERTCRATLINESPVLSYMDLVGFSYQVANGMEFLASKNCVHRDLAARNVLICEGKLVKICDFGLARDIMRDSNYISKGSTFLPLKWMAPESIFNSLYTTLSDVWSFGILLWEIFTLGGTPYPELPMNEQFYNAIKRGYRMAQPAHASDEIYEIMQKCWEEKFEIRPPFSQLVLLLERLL
- assay.overview: Inhibition of PDGF receptor kinase activity (ELISA)
- Format: biochemical
- assay.conditions: 1 μM; values in parentheses
- Protocol: Bridged indenopyrrolocarbazole compounds were examined for their inhibitory effects on the kinase activity of baculovirus-expresses PDGFβ receptor kinase domain using the trkA kinase ELISA described above. […] The reaction was quenched with acid and the resulting absorbance was read at 450 nm using a Microplate Bio-kinetics Reader (Bio-Tek Instrument EL 312e). Inhibition data were analyzed using the sigmoidal dose-response (variable slope) equation in GraphPad Prism.
readout.type: PDGFR % Inh. @ 1 μM

CC12CCCC(O1)n1c3ccccc3c3c4c(c5c(c31)C2c1ccccc1-5)C(=O)NC4 (single isomer, unassigned) [II-4a]    (0) %
